target: CaV3.1 (Homo sapiens, UniProt O43497); construct: expressed in transfected cells; host or cells: unnamed doxycycline-inducible cell line; assay: High-throughput CaV3.1 T-type FLIPR fluorescent assay; format: cell-based; details: Table 5; Fluo-4 FLIPR
Sequence (O43497 whole entry): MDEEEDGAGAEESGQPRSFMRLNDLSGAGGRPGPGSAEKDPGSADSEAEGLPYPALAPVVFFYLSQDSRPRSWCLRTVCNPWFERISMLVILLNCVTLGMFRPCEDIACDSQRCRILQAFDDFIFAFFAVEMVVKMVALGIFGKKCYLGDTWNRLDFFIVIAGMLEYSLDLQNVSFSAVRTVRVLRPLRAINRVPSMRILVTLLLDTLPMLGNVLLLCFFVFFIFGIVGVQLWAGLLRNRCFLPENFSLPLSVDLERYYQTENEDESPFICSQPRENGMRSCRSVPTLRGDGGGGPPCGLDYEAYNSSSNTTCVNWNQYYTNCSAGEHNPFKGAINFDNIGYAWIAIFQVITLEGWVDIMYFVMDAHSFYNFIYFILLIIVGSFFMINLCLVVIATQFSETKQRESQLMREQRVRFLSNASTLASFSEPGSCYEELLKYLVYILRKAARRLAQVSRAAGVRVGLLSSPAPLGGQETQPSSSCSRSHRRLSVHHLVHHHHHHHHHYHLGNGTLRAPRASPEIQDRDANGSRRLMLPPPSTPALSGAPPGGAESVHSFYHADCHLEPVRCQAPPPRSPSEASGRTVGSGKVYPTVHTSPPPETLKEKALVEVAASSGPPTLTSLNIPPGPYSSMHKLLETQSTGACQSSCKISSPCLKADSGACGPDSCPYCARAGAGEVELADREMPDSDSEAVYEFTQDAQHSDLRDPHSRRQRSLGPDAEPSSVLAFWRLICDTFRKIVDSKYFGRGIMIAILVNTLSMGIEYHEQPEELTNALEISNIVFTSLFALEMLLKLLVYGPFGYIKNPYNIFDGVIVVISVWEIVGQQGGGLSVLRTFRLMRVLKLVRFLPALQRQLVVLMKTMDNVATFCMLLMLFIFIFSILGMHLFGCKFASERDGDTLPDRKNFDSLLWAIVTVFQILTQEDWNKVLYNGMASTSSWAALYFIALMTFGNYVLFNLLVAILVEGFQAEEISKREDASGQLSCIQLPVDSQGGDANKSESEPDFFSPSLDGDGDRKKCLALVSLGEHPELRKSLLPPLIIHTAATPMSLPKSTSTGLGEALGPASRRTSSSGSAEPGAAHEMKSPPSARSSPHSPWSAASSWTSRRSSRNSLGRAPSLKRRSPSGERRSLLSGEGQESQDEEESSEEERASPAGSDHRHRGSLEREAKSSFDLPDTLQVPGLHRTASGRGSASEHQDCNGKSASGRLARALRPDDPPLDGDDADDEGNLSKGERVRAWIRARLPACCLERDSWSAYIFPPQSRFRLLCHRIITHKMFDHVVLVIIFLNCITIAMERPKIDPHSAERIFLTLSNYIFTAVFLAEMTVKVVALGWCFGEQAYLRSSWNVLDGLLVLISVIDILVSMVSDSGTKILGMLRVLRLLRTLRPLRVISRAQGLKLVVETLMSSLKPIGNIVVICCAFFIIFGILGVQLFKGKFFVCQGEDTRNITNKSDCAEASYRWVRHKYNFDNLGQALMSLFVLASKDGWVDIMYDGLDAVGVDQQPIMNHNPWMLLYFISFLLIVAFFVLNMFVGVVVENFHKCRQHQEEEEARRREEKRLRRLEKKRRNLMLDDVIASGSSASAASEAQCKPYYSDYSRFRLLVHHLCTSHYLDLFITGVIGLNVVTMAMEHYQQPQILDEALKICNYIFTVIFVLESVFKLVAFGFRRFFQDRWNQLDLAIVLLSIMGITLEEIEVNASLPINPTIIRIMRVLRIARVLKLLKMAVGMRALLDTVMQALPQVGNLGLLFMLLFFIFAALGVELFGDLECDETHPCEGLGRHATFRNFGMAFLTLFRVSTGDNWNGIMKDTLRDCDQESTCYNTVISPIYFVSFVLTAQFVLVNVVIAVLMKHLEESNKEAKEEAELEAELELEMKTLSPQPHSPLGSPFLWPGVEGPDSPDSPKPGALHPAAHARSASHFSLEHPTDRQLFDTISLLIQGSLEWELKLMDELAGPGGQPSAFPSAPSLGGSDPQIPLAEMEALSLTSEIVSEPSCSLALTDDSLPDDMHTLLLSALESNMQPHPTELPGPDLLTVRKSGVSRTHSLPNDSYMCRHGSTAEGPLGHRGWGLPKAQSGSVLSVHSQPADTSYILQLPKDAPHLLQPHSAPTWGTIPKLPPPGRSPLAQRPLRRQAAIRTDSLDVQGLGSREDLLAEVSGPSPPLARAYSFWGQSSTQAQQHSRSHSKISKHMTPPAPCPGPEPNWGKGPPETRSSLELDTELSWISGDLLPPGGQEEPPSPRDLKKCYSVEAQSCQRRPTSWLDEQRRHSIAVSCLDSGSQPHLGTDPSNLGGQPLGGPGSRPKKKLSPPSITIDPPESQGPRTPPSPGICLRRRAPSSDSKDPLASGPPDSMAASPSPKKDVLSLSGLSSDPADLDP
readout kind: IC50 (µM)

>>> assay_result("CC(C)(C(=O)NCc1cccc(S(=O)(=O)c2cccc(C(F)(F)F)c2)c1)S(=O)(=O)c1cccc(C(F)(F)F)c1")
1.41

A = CC(C)(C(=O)NCc1ccc(S(=O)(=O)c2cccc(C(F)(F)F)c2)cc1)S(=O)(=O)c1cccc(C(F)(F)F)c1
B = CC(C)(C(=O)NCCc1c[nH]c2ccc(F)cc12)S(=O)(=O)c1cccc(C(F)(F)F)c1
C = CC(C)(C(=O)N1CCN(c2cccc(C(F)(F)F)c2)CC1)S(=O)(=O)c1cccc(C(F)(F)F)c1
D = CC(C)(C(=O)NCc1ccccc1S(=O)(=O)c1cccc(C(F)(F)F)c1)S(=O)(=O)c1cccc(C(F)(F)F)c1
// ascending sort on recorded IC50 Please list the labels in the order you were asked to rank them. D, A, C, B

A = CC(C)(CCNC(=O)C(C)(C)S(=O)(=O)c1cccc(C(F)(F)F)c1)S(=O)(=O)c1cccc(C(F)(F)F)c1
B = CC(C)(C(=O)Nc1ccc(Oc2ccc(F)c(Cl)c2)nc1)S(=O)(=O)c1cccc(OC(F)(F)F)c1
Lower value for measured IC50? Options: A , B Identify your pick by its label. A

I = CC(C)(C(=O)Nc1ccc(Oc2ccc(C(F)(F)F)cn2)nc1)S(=O)(=O)c1cccc(OC(F)(F)F)c1
II = CC(C)(C(=O)N1CCC(c2cccc(Cl)c2)CC1)S(=O)(=O)c1cccc(C(F)(F)F)c1
Which of the two gives a bigger number for IC50: I or II ? Identify your pick by its label. I
(I: 4.99 µM, II: 2.16 µM)

Measured values drawn from patent US20140113898A1 for this set.
